Tested on: UACC-62 melanoma
Assay: NCI tumour cell line growth inhibition, 48 h
value.kind: GI50

Here are 4 molecules together with their reported answers.
> print(dat)
                                   molecule  measured
1  COc1cc(/C=C(/c2ccccc2)[N+](=O)[O-])c(OC)c2c1OCO2   1.44 µM
2  COC(=O)[C@@H]1CCCN1C(=O)[C@@H]1CCCN1C(=O)[C@@H](Cc1c[nH]c2ccccc12)NC(=S)Nc1cc(C(F)(F)F)cc(C(F)(F)F)c1   3.68 µM
3  COc1ccccc1-c1c(C)nn2c(NCc3ccccn3)cc(C)nc12   16.9 µM
4  C=C[C@]1(C)C=C2C(=O)[C@@]3(O)OC[C@@]4(CCCC(C)(C)C43O)C2(O)C(O)C1 (stereo not given in full)   7.77 µM

The record that follows has no GI50 shown yet.
Query block: Reported GI50 for C=C(C)CCC(C)N1CCC(N2CCC(C(=O)NCCc3ccccc3)CC2)CC1 (stereo not given) : what is it?
Result block: 13.7 µM

Source of measurements: PubChem BioAssay (NCI)
